- System: HeLa Kyoto
- assay.explanation: thermal stability score vs G1/S (z-score of summed log2 fold changes over temperatures); higher = more thermally stable than in G1/S
- recorded.conditions: cell cycle stage: mitosis
measurement.name: thermal stability score

INSERT INTO results (substance, measurement_name, reading) VALUES
  ('MDSAGQDINLNSPNKGLLSDSMTDVPVDTGVAARTPAVEGLTEAEEEELRAELTKVEEEIVTLRQVLAAKERHCGELKRRLGLSTLGELKQNLSRSWHDVQVSSAYVKTSEKLGEWNEKVTQSDLYKKTQETLSQAGQKTSAALSTVGSAISRKLGDMRNSATFKSFEDRVGTIKSKVVGDRENGSDNLPSSAGSGDKPLSDPAPF [TPD52L2]', 'thermal stability score', -5.07),
  ('MQRALPGARQHLGAILASASVVVKALCAAVLFLYLLSFAVDTGCLAVTPGYLFPPNFWIWTLATHGLMEQHVWDVAISLTTVVVAGRLLEPLWGALELLIFFSVVNVSVGLLGAFAYLLTYMASFNLVYLFTVRIHGALGFLGGVLVALKQTMGDCVVLRVPQVRVSVMPMLLLALLLLLRLATLLQSPALASYGFGLLSSWVYLRFYQRHSRGRGDMADHFAFATFFPEILQPVVGLLANLVHSLLVKVKICQKTVKRYDVGAPSSITISLPGTDPQDAERRRQLALKALNERLKRVEDQSIWPSMDDDEEESGAKVDSPLPSDKAPTPPGKGAAPESSLITFEAAPPTL [TMEM115]', 'thermal stability score', -3.54),
  ('MAGSYPEGAPAILADKRQQFGSRFLSDPARVFHHNAWDNVEWSEEQAAAAERKVQENSIQRVCQEKQVDYEINAHKYWNDFYKIHENGFFKDRHWLFTEFPELAPSQNQNHLKDWFLENKSEVCECRNNEDGPGLIMEEQHKCSSKSLEHKTQTPPVEENVTQKISDLEICADEFPGSSATYRILEVGCGVGNTVFPILQTNNDPGLFVYCCDFSSTAIELVQTNSEYDPSRCFAFVHDLCDEEKSYPVPKGSLDIIILIFVLSAVVPDKMQKAINRLSRLLKPGGMVLLRDYGRYDMAQLRFKKGQCLSGNFYVRGDGTRVYFFTQEELDTLFTTAGLEKVQNLVDRRLQVNRGKQLTMYRVWIQCKYCKPLLSSTS [METTL2B]', 'thermal stability score', 1.29),
  ('GPATCH8', 'thermal stability score', 4.11);

###

- Tested on: HeLa Kyoto;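 also: synchronized HeLa Kyoto cells, proteins quantified by TMT10plex mass spectrometry, three biological replicates, mitosis taken 0.5 h after nocodazole release, G1/S directly after double thymidine block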
- assay.explanation: thermal stability score vs G1/S (z-score of summed log2 fold changes over temperatures); higher = more thermally stable than in G1/S
- recorded.conditions: cell cycle stage: early G1 (4.5 h after nocodazole release)
Parameter thermal stability score: see the listing below.
measurement.name: thermal stability score

INSERT INTO assay_data (chain_sequence, tgt, reading) VALUES
  ('MLRSVWNFLKRHKKKCIFLGTVLGGVYILGKYGQKKIREIQEREAAEYIAQARRQYHFESNQRTCNMTVLSMLPTLREALMQQLNSESLTALLKNRPSNKLEIWEDLKIISFTRSTVAVYSTCMLVVLLRVQLNIIGGYIYLDNAAVGKNGTTILAPPDVQQQYLSSIQHLLGDGLTELITVIKQAVQKVLGSVSLKHSLSLLDLEQKLKEIRNLVEQHKSSSWINKDGSKPLLCHYMMPDEETPLAVQACGLSPRDITTIKLLNETRDMLESPDFSTVLNTCLNRGFSRLLDNMAEFFRPTEQDLQHGNSMNSLSSVSLPLAKIIPIVNGQIHSVCSETPSHFVQDLLTMEQVKDFAANVYEAFSTPQQLEK [PEX3]', 'HeLa Kyoto', 0.401),
  ('MAAVAATAAAKGNGGGGGRAGAGDASGTRKKKGPGPLATAYLVIYNVVMTAGWLVIAVGLVRAYLAKGSYHSLYYSIEKPLKFFQTGALLEILHCAIGIVPSSVVLTSFQVMSRVFLIWAVTHSVKEVQSEDSVLLFVIAWTITEIIRYSFYTFSLLNHLPYLIKWARYTLFIVLYPMGVSGELLTIYAALPFVRQAGLYSISLPNKYNFSFDYYAFLILIMISYIPIFPQLYFHMIHQRRKILSHTEEHKKFE [HACD2]', 'HeLa Kyoto', 0.894),
  ('MDTPLRRSRRLGGLRPESPESLTSVSRTRRALVEFESNPEETREPGSPPSVQRAGLGSPERPPKTSPGSPRLQQGAGLESPQGQPEPGAASPQRQQDLHLESPQRQPEYSPESPRCQPKPSEEAPKCSQDQGVLASELAQNKEELTPGAPQHQLPPVPGSPEPYPGQQAPGPEPSQPLLELTPRAPGSPRGQHEPSKPPPAGETVTGGFGAKKRKGSSSQAPASKKLNKEELPVIPKGKPKSGRVWKDRSKKRFSQMLQDKPLRTSWQRKMKERQERKLAKDFARHLEEEKERRRQEKKQRRAENLKRRLENERKAEVVQVIRNPAKLKRAKKKQLRSIEKRDTLALLQKQPPQQPAAKI [CCDC86]', 'HeLa Kyoto', -0.356),
  ('MCGNTMSVPLLTDAATVSGAERETAAVIFLHGLGDTGHSWADALSTIRLPHVKYICPHAPRIPVTLNMKMVMPSWFDLMGLSPDAPEDEAGIKKAAENIKALIEHEMKNGIPANRIVLGGFSQGGALSLYTALTCPHPLAGIVALSCWLPLHRAFPQAANGSAKDLAILQCHGELDPMVPVRFGALTAEKLRSVVTPARVQFKTYPGVMHSSCPQEMAAVKEFLEKLLPPV [LYPLA2]', 'HeLa Kyoto', -1.02),
  ('MQNYKYDKAIVPESKNGGSPALNNNPRRSGSKRVLLICLDLFCLFMAGLPFLIIETSTIKPYHRGFYCNDESIKYPLKTGETINDAVLCAVGIVIAILAIITGEFYRIYYLKKSRSTIQNPYVAALYKQVGCFLFGCAISQSFTDIAKVSIGRLRPHFLSVCNPDFSQINCSEGYIQNYRCRGDDSKVQEARKSFFSGHASFSMYTMLYLVLYLQARFTWRGARLLRPLLQFTLIMMAFYTGLSRVSDHKHHPSDVLAGFAQGALVACCIVFFVSDLFKTKTTLSLPAPAIRKEILSPVDIIDRNNHHNMM [PLPP3]', 'HeLa Kyoto', -1.69),
  ('MVDYSVWDHIEVSDDEDETHPNIDTASLFRWRHQARVERMEQFQKEKEELDRGCRECKRKVAECQRKLKELEVAEGGKAELERLQAEAQQLRKEERSWEQKLEEMRKKEKSMPWNVDTLSKDGFSKSMVNTKPEKTEEDSEEVREQKHKTFVEKYEKQIKHFGMLRRWDDSQKYLSDNVHLVCEETANYLVIWCIDLEVEEKCALMEQVAHQTIVMQFILELAKSLKVDPRACFRQFFTKIKTADRQYMEGFNDELEAFKERVRGRAKLRIEKAMKEYEEEERKKRLGPGGLDPVEVYESLPEELQKCFDVKDVQMLQDAISKMDPTDAKYHMQRCIDSGLWVPNSKASEAKEGEEAGPGDPLLEAVPKTGDEKDVSV [CDC37]', 'HeLa Kyoto', 0.438),
  ('MSVPGPYQAATGPSSAPSAPPSYEETVAVNSYYPTPPAPMPGPTTGLVTGPDGKGMNPPSYYTQPAPIPNNNPITVQTVYVQHPITFLDRPIQMCCPSCNKMIVSQLSYNAGALTWLSCGSLCLLGCIAGCCFIPFCVDALQDVDHYCPNCRALLGTYKRL [LITAF]', 'HeLa Kyoto', -0.592),
  ('MAATFFGEVVKAPCRAGTEDEEEEEEGRRETPEDREVRLQLARKREVRLLRRQTKTSLEVSLLEKYPCSKFIIAIGNNAVAFLSSFVMNSGVWEEVGCAKLWNEWCRTTDTTHLSSTEAFCVFYHLKSNPSVFLCQCSCYVAEDQQYQWLEKVFGSCPRKNMQITILTCRHVTDYKTSESTGSLPSPFLRALKTQNFKDSACCPLLEQPNIVHDLPAAVLSYCQVWKIPAILYLCYTDVMKLDLITVEAFKPILSTRSLKGLVKNIPQSTEILKKLMTTNEIQSNIYT [PSMG1]', 'HeLa Kyoto', -0.428),
  ('MSSDFEGYEQDFAVLTAEITSKIARVPRLPPDEKKQMVANVEKQLEEAKELLEQMDLEVREIPPQSRGMYSNRMRSYKQEMGKLETDFKRSRIAYSDEVRNELLGDDGNSSENQRAHLLDNTERLERSSRRLEAGYQIAVETEQIGQEMLENLSHDREKIQRARERLRETDANLGKSSRILTGMLRRIIQNRILLVILGIIVVITILMAITFSVRRH [VTI1A]', 'HeLa Kyoto', -4.18),
  ('MFRRKLTALDYHNPAGFNCKDETEFRNFIVWLEDQKIRHYKIEDRGNLRNIHSSDWPKFFEKYLRDVNCPFKIQDRQEAIDWLLGLAVRLEYGDNAEKYKDLVPDNSKTADNATKNAEPLINLDVNNPDFKAGVMALANLLQIQRHDDYLVMLKAIRILVQERLTQDAVAKANQTKEGLPVALDKHILGFDTGDAVLNEAAQILRLLHIEELRELQTKINEAIVAVQAIIADPKTDHRLGKVGR [C14ORF166]', 'HeLa Kyoto', -1.08),
  ('MAGKQAVSASGKWLDGIRKWYYNAAGFNKLGLMRDDTIYEDEDVKEAIRRLPENLYNDRMFRIKRALDLNLKHQILPKEQWTKYEEENFYLEPYLKEVIRERKEREEWAKK [UQCRB]', 'HeLa Kyoto', -3.18);
